The measured values listed here are drawn from paper PMC9471048.

molecular target: UniProtKB P08913; experiment: 3H‐rauwolscine whole cell binding in CHO‐α2A cells; parameters: expressed in transfected cells; host or cells: CHO-K1 with CRE-SPAP reporter; settings: CHO‐α2A, 3H‐rauwolscine whole cell binding; given as negative log KD; read-out: Log KD (binding) (converted)
Sequence (P08913 whole entry): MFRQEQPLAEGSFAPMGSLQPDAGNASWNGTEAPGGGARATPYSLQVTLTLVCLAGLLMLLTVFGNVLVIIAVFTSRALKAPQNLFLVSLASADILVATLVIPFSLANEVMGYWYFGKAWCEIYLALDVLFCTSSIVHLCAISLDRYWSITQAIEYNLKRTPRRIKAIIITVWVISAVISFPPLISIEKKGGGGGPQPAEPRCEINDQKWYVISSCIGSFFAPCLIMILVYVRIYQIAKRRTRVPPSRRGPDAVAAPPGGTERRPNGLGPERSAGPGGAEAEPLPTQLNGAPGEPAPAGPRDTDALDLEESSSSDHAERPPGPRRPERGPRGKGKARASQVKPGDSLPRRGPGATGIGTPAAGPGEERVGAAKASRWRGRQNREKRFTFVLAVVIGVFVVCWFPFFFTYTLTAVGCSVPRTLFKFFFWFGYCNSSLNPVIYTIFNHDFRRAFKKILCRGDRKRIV
Threshold check on Kd: strictly below 90 µM is Fulfilled; on or above 90 µM is Not fulfilled.

c1ccc2c(CC3=NCCN3)cccc2c1 [Naphazoline]: Fulfilled
NCC(O)c1ccc(O)cc1 (stereo not shown) [Octopamine]: Not fulfilled
c1ccc2c(c1)CCCC2C1=NCCN1 (stereo not shown) [Tetrahydrozoline]: Fulfilled

Ask: Check if Kd falls below 90 µM for COc1ccc(OC)c(C(O)C(C)N)c1 (stereo not shown) [Methoxamine] .
Result: Not fulfilled

Ask: Record C1COC(NC(C2CC2)C2CC2)=N1 [Rilmenidine] : is its Kd strictly below 90 µM?
Result: Fulfilled

Ask: hey, is Kd for c1ccc(C2CC2)c(OCC2=NCCN2)c1 [Cirazoline] lower than 90 µM or not?
Result: Fulfilled

Ask: Lab note: Kd threshold 90 µM. Does this molecule come in strictly under it? CCNCC(O)c1cccc(O)c1 (stereo not shown) [Etilefrine]
Result: Not fulfilled
